Test: Concentration of pesticides and metabolites in plasma of rats after 90-day gavage exposure to a pesticide mixture
Assay type: in vivo, rat
Settings: plasma; exposure expressed as mg/kg per day, concentration as ng/mL; detected values only
Experimental: Eight rats were randomly assigned to each of the experimental groups. A low-calorie water gel that contained the pesticides was administered via gavage to these rats three times per week for 90 days. […] Testing lower levels would not have been relevant because some compounds would not be detected anymore (analytical limitation). In addition, for some other compounds, no differences were detected in the current experiment between the lowest level of exposure and the background exposure of the controls. […]
The entries below come with measured Slope (linear fit), concentration in plasma versus level of exposure values attached.
Could you keep your reply to the number by itself?

Sample answers from the record:
[[record]]
molecule = "ClC1=C(Cl)[C@]2(Cl)[C@@H]3[C@@H]4C[C@@H]([C@H]5O[C@@H]45)[C@@H]3[C@@]1(Cl)C2(Cl)Cl [Dieldrin]"
valuemeasured = 305

[[record]]
molecule = "O=C(O)c1cccc(Oc2ccccc2)c1 [3-PBA, 3-phenoxybenzoic acid]"
valuemeasured = 422

[[record]]
molecule = "Cl[C@H]1[C@H](Cl)[C@@H](Cl)[C@@H](Cl)[C@H](Cl)[C@H]1Cl [γ-HCH, γ-hexachlorocyclohexane]"
valuemeasured = 47.2


Q. Recorded Slope (linear fit), concentration in plasma versus level of exposure for CCOP(=S)(OCC)Oc1nc(Cl)c(Cl)cc1Cl [Chlorpyrifos] , please?
A. 1.24
